- TARGET_OF_ASSAY: T1, human CD200R1 expressed on cells (Jurkat-CD200R1, U937-CD200R1, HH cells) (human, UniProt Q8TD46 25-348)
- T1 construct: whole, on cells; also called HH (CRL-2105); cell surface-expressed CD200R1
- T1 sequence (looked up): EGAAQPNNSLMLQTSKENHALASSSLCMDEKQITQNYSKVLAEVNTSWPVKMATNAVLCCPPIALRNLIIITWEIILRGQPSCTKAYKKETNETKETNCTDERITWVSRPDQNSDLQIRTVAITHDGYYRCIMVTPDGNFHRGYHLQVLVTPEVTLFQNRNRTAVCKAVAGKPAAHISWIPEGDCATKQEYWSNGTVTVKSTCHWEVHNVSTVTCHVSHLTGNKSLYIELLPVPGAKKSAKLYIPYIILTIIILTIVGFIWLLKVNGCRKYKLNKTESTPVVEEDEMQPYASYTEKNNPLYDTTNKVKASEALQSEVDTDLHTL
- PROTOCOL_DETAILS: flow cytometry, HH cells; drawn table
ASSAY_READOUT: Geo mean (%) at 200 nM
Give the figure together with its unit, number first.

Give the value of Geo mean (%) at 200 nM reported for the following: P001018 scFv mutant L3-T96R (scFv) scFv: QVQLVQSGAEVKKPGASVKVSCKASGYTFTSYVMHWVRQAPGQGLEWMGYINPYNDDTNYNEKFKGRVTMTRDTSTSTVYMELSSLRSEDTAVYYCAREDYYGSRWGYWGQGTLVTVSSGGGGSGGGGSGGGGSDIVLTQSPASLAVSPGQRATITCRASKSVSTSGYSYMHWYQQKPGQPPKLLIYLASNLESGVPARFSGSGSGTDFTLTINPVEANDTANYYCQHSRELLRFGQGTKVEIK
116%

Give the value of Geo mean (%) at 200 nM reported for the following: P001018 scFv mutant L3-L95D (scFv) scFv: QVQLVQSGAEVKKPGASVKVSCKASGYTFTSYVMHWVRQAPGQGLEWMGYINPYNDDTNYNEKFKGRVTMTRDTSTSTVYMELSSLRSEDTAVYYCAREDYYGSRWGYWGQGTLVTVSSGGGGSGGGGSGGGGSDIVLTQSPASLAVSPGQRATITCRASKSVSTSGYSYMHWYQQKPGQPPKLLIYLASNLESGVPARFSGSGSGTDFTLTINPVEANDTANYYCQHSRELDTFGQGTKVEIK
119%

Give the value of Geo mean (%) at 200 nM reported for the following: P001018 scFv mutant L3-L94H (scFv) scFv: QVQLVQSGAEVKKPGASVKVSCKASGYTFTSYVMHWVRQAPGQGLEWMGYINPYNDDTNYNEKFKGRVTMTRDTSTSTVYMELSSLRSEDTAVYYCAREDYYGSRWGYWGQGTLVTVSSGGGGSGGGGSGGGGSDIVLTQSPASLAVSPGQRATITCRASKSVSTSGYSYMHWYQQKPGQPPKLLIYLASNLESGVPARFSGSGSGTDFTLTINPVEANDTANYYCQHSREHLTFGQGTKVEIK
96.7%

Give the value of Geo mean (%) at 200 nM reported for the following: P001018 scFv mutant L3-R92S (scFv) scFv: QVQLVQSGAEVKKPGASVKVSCKASGYTFTSYVMHWVRQAPGQGLEWMGYINPYNDDTNYNEKFKGRVTMTRDTSTSTVYMELSSLRSEDTAVYYCAREDYYGSRWGYWGQGTLVTVSSGGGGSGGGGSGGGGSDIVLTQSPASLAVSPGQRATITCRASKSVSTSGYSYMHWYQQKPGQPPKLLIYLASNLESGVPARFSGSGSGTDFTLTINPVEANDTANYYCQHSSELLTFGQGTKVEIK
108%
